# melting point values compiled below
MEASUREMENT LABEL: melting point

MOLECULE	DATA VALUE
CN(C)c1ccc(C2(c3ccc(N(C)C)cc3N(C)C)OC(=O)c3ccc(N(C)C)cc32)cc1 (stereo unspecified)	222 to 225 °C
N#CNC(=N)NC1CCCc2ccccc21 (stereo unspecified)	153 to 155 °C
CCCCC1C=C(N)c2ncccc2N1CC(C)(C)O (stereo unspecified)	177 to 179 °C
CCCCc1nn(-c2cc(NC(=O)CC)ccc2C(F)(F)F)c(=O)n1Cc1ccc(-c2ccccc2S(=O)(=O)NC(=O)c2ccccc2Cl)cc1	102 to 105 °C
O=C(NCC(=O)c1cccs1)c1ccc(Cl)cc1	157 to 159 °C
COc1ccc(C(=O)Nc2c(Cl)cncc2Cl)cc1OCCCCCCCCCCCc1ccccc1	114 to 115 °C
Nc1cc(-c2cc(=O)c(C(=O)O)cn2-c2ccc(F)cc2)ccc1O	231 to 233 °C
C(=NC1CCCCC1)c1cccc(Oc2ccccc2)c1	72 to 74 °C
O=C(O)C1CCc2cc([N+](=O)[O-])ccc2O1 (stereo unspecified)	180 °C
CSc1nccc(Oc2ccc(NC(=O)c3cc(F)cc(OC4CCCC4)c3)c3ccccc23)n1	115 to 116 °C
CCOc1ccc(N(Cc2ccccc2)Cc2ccccc2)cc1	80 to 82 °C
COc1cc(OC)c(-c2csc(N)n2)cc1Cl	162 °C
CN1CCN(C2=Nc3cc(Br)ccc3N3CCc4cc(Br)cc2c43)CC1	215 to 216 °C
c1cc(N2CCCCC2)ccc1OC12CC3CC(CC(C3)C1)C2	72 to 73.5 °C
C#CCCN1C(=O)c2ccccc2C1=O	137 to 139 °C
CNC(=C[N+](=O)[O-])NCCSCc1cc(CN2CCCC2)cs1	109 to 111 °C
Cc1ccc(NC(=O)c2ccc(CN3CCN(C)CC3)c(C(F)F)c2)cc1Nc1nccc(-c2cncnc2)n1	206 to 207 °C
O=C(c1ccc(S)cc1)c1ccc([N+](=O)[O-])cc1	116 to 117 °C
O=C(NC1CCN(CCc2ccccc2)CC1)C1=Cc2cnc3cccc(n23)S1	216 to 217 °C
CN(C)c1nnc(Br)c(=O)[nH]1	261 to 262 °C
O=C(NC(=O)c1c(F)cccc1F)Nc1ccc(C(F)(F)F)cc1F	197 °C
CCOCc1nc2c(N(Cc3ccccc3)Cc3ccccc3)nc(Cl)c(C)c2n1N	127 to 129 °C
Oc1ccc(Cl)cc1-n1c(=S)[nH]c2cc(C(F)(F)F)ccc21	248 to 250 °C
COC(=O)Cc1ccc(OS(=O)(=O)C(F)(F)F)c([N+](=O)[O-])c1	44 to 45 °C
COc1ccc(CN2CCC(c3cn(Cc4ccco4)c4ccccc34)CC2)cc1C(=O)O	237 to 238 °C
CCCCCCCCCCCCCCOc1ccc(CN(C(C)=O)c2cccc(CO)c2)cc1	65 to 67 °C
CN1CCC(N(C)C(=O)c2ccc(Nc3nccc(Nc4ccc(C(F)(F)F)cc4)n3)cc2)CC1	238 to 244 °C
O=C(C1CCCCC1)N1CC(=NO)NC(=NO)C1	> 260 °C
O=S(=O)(CCl)c1ccc(O)c(Cl)c1	108 °C
OCCOCn1cc(I)c2c(Cl)ncnc21	154 to 155 °C
C=C(C)C(=O)NCCNC(=O)CCl	126 to 128 °C
O=C(NC(NC(=S)Nc1cccnc1)C(F)(F)F)c1ccc(Cl)cc1 (stereo unspecified)	147 to 149 °C
CCOC(=O)CCCOc1ccc2c(c1)C(=O)CCC2	62 to 63 °C
O=C(CCCOc1cccc(CNC(=O)c2nc3ccccc3c(=O)[nH]2)c1)Nc1nc[nH]n1	189 to 190 °C
CCS(=O)(=O)N[C@H](C(=O)NCCc1ccc(OC/C=C\c2ccc(Cl)cc2)c(OC)c1)C(C)C	141 to 143 °C
O=S(=O)(c1ccc(Cl)cc1)N1CCCC1c1cccc(Cl)c1 (racemic)	99 °C
CCOCC(O)COc1cccc2oc(-c3ccccc3)cc(=O)c12 (stereo unspecified)	85 to 86.5 °C
COc1cc(C(=O)O)ccc1OCCCCCOc1nc2ccccc2s1	130 to 131 °C
CCOC(=O)CN(CP(=O)(ONN(C)C)ONN(C)C)C(=O)C(F)(F)F	84.5 to 87.5 °C
COc1ccc2cc([C@H](C)C(=O)NOCC(=O)O)ccc2c1	152 to 153 °C
COC(=O)C(=O)CC(=O)c1ccc(C2CCCCC2)cc1	96 to 98 °C

----------
MEASUREMENT LABEL: melting point

COMPOUND	DATA VALUE
O=C(O)CCCCCCCCCCn1nc(-c2ccccc2)c(-c2ccccc2)c1-c1ccccc1	81.5 to 84 °C
CCOC(=O)c1cnc(-c2ccccc2OCC2CC2)[nH]c1=O	104 to 105 °C
CCCCCc1ccc(CCc2ccc(-c3ccc([C@H]4CC[C@H](CCCCC)CC4)cc3F)cc2)cc1	69 °C
Nc1ccccc1C(=O)c1ccc(F)cc1	125 to 127 °C
CCOc1ccc(-c2ccc(N3CC(CNC(C)=O)OC3=O)cc2)ccc1=O (stereo not given)	228 to 229 °C

----------
Measured melting point, listed per entry.

COMPOUND	melting point
COc1cc(C#N)cc2cc(CO)oc12	149 to 150 °C
Cc1csc2ncc(C=O)n12	163 to 165 °C
CCc1cccc(CC)c1NC(=O)C1c2ccccc2COc2c(C)ccc(C)c21 (stereo not given)	104 to 106 °C
O=C(NC1CCC(CCN2CCC(c3cccc4c3CCO4)CC2)CC1)C(O)C(F)(F)F (racemic)	179 °C
Cc1cc([N+](=O)[O-])ccc1N=C1SC(=O)CN1CC(C)C	152 °C
COC(=O)C(C)(C)c1ccc(C(=O)Nc2cn3cc(I)ccc3n2)cc1	234 to 235 °C
CC(C)(C)[Si](C)(C)Oc1cccc2[nH]ccc12	80 to 81 °C
COc1ccc(C(=O)Nc2ccc(F)cc2)cc1NS(=O)(=O)c1ccc([N+](=O)[O-])cc1	208 to 211 °C
CC(=O)N(C(C)=O)c1ccc2c(c1)C(C(Cl)(Cl)Cl)OC(C(Cl)(Cl)Cl)O2 (stereo not given)	147 to 148 °C
O=C(c1ccc(-c2ccccc2)cc1)N1Cc2cccn2Cc2ncccc21	171 to 172 °C

----------
Here the recorded melting point is given for each entry.

COMPOUND	melting point
CN1CCc2c(C3=CC(=O)CCC3)c(F)cc3c(=O)c(C(=O)O)cn1c23	> 300 °C
Clc1cccc(N2CCN(CCCCOc3ccc4cn[nH]c4c3)CC2)c1Cl	101 to 103 °C
Brc1cccc(-c2cc3nccnc3[nH]2)c1	247 to 249 °C
COCC(NC(=O)OCc1ccccc1)C(=O)NCc1ccccc1 (stereo not given)	112 to 114 °C
CS(=O)(=O)c1ccc(-c2oc3ccc(F)cc3c(=O)c2-c2cccnc2)cc1	177 to 178 °C

----------
Parameter: melting point. Scope: all listed entries.
MEASUREMENT LABEL: melting point

COMPOUND	DATA VALUE
O=C1CCCC2=C1C(c1cccc(F)c1)C1=C(CCCC1)N2 (stereo not given)	249 to 251 °C
COc1cc(C2=Nc3ccc(N4CCOCC4)cc3C(=O)C2)ccc1O	297 to 299 °C
Nc1nc(C2CCN(C(=O)Nc3ccccc3)CC2)c2ccccc2n1	178 to 180 °C
COCCc1nc2c(N)nc3ccccc3c2n1CC(C)(C)CNS(C)(=O)=O	204 to 206 °C
COC12C=CC(CC1)CC2C(=O)O (stereo not given)	77 to 81 °C
CC(C)(CO)c1cc(Cl)nnc1Cl	133 to 136 °C
CCCCCCCN(CCCCCCCCSc1nc(-c2ccccc2)c(-c2ccccc2)[nH]1)C(=O)Nc1ccc(F)cc1F	89 to 91 °C
CC(C)(C)CCNc1cccc(-c2ccnc3c(C(=O)c4cccs4)cnn23)c1	156 to 158 °C
O=C(NCCCO)c1cc(O)c(O)c([N+](=O)[O-])c1	160 to 163 °C
COC(=O)CCC(=O)c1ccc(-c2ccc(Cl)cc2)o1	99 to 100 °C

----------
MEASUREMENT LABEL: melting point

MOLECULE	DATA VALUE
CCCCOc1c(CNC(=O)OCC2c3ccccc3-c3ccccc32)n(CC(C)C)c(=O)c2ccc(-c3nc(C)c(C(=O)OCC)s3)cc12	203 to 204 °C
Cn1c2nc3ccccc3nc2c2cccc(C=O)c21	220 °C
CCOC(=O)C=C(C)C=CC=C(C)C=Cc1c(C)cc(OC)c(OC)c1C	203 to 204 °C
O=C(C=Cc1ccccn1)Nc1nnn[nH]1	275 to 276 °C
CC(F)(F)c1cccc(C[C@H](N)[C@H](O)c2ccc(F)cc2)c1 (racemic)	101 to 102 °C
N#Cc1ncccc1C(=O)OCC(Cl)(Cl)Cl	103 °C
CN(C)C(=O)Oc1ccc2c(c1)[nH]c(=O)c1c3ccc(OC(=O)N(C)C)cc3oc21	255 to 269 °C
O=c1[nH]nc(-c2ccc(-n3ccnc3)cc2)c2ncccc12	376 to 378 °C
CCN(C(=O)OC)c1c(C(=O)c2cnoc2C2CC2)ccc(Cl)c1Cl	76 to 78 °C
N#Cc1cc(C(=O)NN2CCOCC2)ccc1OCC(=O)O	205 to 206 °C
